Please go through the items and note down their IC50.
Target: Tyrosinase from mushroom
Construct: gene PPO3
Assay: dopachrome absorbance at […] nm
Type: biochemical
Settings: 2 mM L-tyrosine, 0.1 M phosphate pH 6.5, 37 °C, 30 min, 150 U/mL enzyme; read-out: IC50 ± SD (μM) / Tyrosinase
Report as a plain number; the unit µM is understood.

Exercise: Reported IC50, molecule COC(C)(C)CCc1c(O[C@@H]2O[C@H](CO)[C@@H](O)[C@H](O)[C@H]2O)ccc(C(=O)/C=C/c2ccc(O)cc2)c1O [compound 5] : ____
Key: 28.7

Exercise: Reported IC50, molecule CCOC(C)(C)CCc1c(O[C@@H]2O[C@H](CO)[C@@H](O)[C@H](O)[C@H]2O)ccc(C(=O)/C=C/c2ccc(O)cc2)c1O [compound 7] : ____
Key: 33.3

Exercise: Reported IC50, molecule CC(C)=CCC/C(C)=C/Cc1c(O[C@@H]2O[C@H](CO)[C@@H](O)[C@H](O)[C@H]2O)ccc(C(=O)/C=C/c2ccc(O)cc2)c1O [compound 10, 4′-O-β-D-Glucopyranosyl xanthoangelol] : ____
Key: 71.7

Exercise: Reported IC50, molecule CC(C)(O)CCc1c(O[C@@H]2O[C@H](CO)[C@@H](O)[C@H](O)[C@H]2O)ccc(C(=O)/C=C/c2ccc(O)cc2)c1O [compound 4] : ____
Key: 78.5

Exercise: Reported IC50, molecule CC(C)=CCc1c(O[C@@H]2O[C@H](CO)[C@@H](O)[C@H](O)[C@H]2O)ccc(C(=O)/C=C/c2ccc(O)cc2)c1O [compound 6] : ____
Key: 43.1

----------
Target: Tyrosinase from mushroom
Construct: gene PPO3
Assay: dopachrome absorbance at […] nm
Format: biochemical
Conditions: 2 mM L-tyrosine, 0.1 M phosphate pH 6.5, 37 °C, 30 min, 150 U/mL enzyme; read-out: IC50 ± SD (μM) / Tyrosinase
readout type: IC50

Exercise: Reported IC50, molecule COc1ccc(C(=O)/C=C/c2ccc(O)cc2)c(O)c1CC=C(C)C [compound 2, 4-hydroxyderricin] : ____
Key: > 100 µM
